- assay.explanation: Cytotoxicity against mouse RAW264.7 cells assessed as cell survival at 100 uM
- Type: cell-based
- condition.details: read-out: Activity
# note: exactly 20% is not below, so it is 0 (no); use 1 (yes) for viability at 100 µM strictly under it

INSERT INTO assay_data (smiles_notation, label_value) VALUES
  ('C=C[C@]1(C)C=C2C[C@@H](O)[C@H]3C(C)(C)CC[C@H](OC(C)=O)[C@]3(C)[C@H]2CC1', '1 (yes)'),
  ('C=C[C@]1(C)C=C2[C@@H](O)[C@@H](O)[C@H]3C(C)(C)CCC[C@]3(C)[C@@]2(O)CC1', '0 (no)'),
  ('C=C[C@]1(C)C=C2CC[C@H]3C(C)(C)CC[C@H](O)[C@]3(C)[C@H]2CC1', '1 (yes)'),
  ('C=C[C@]1(C)C=C2CC[C@H]3C(C)(C)CC[C@H](O)[C@]3(C)[C@H]2[C@H](O)C1', '0 (no)'),
  ('C=C[C@]1(C)C=C2[C@H](O)C[C@H]3C(C)(C)CCC[C@]3(C)[C@H]2CC1', '0 (no)'),
  ('C=C[C@]1(C)C=C2CC[C@H]3C(C)(C)C[C@H](O)[C@H](O)[C@]3(C)[C@H]2[C@H](O)C1', '0 (no)');

Data origin: ChEMBL document CHEMBL4602643
